B1: PBXIP1 (parent)
chain: LQQLRARLQGLEADCVRGPDGVCL

Variants of: B1
assay.protocol: protein stability index of a GFP-peptide fusion (GPS, HEK-293T) (PSI 1-6); higher = more stable;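 further: lentivirally expressed fusions sorted by FACS into six bins by GFP to DsRed ratio, PSI derived from sequencing read proportions per bin multiplied by bin number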
conditions: c terminus: a fixed tail appended
metric: protein stability index
# respond with the number and nothing more

>>> reported_measurement("G10M")
2.02
>>> reported_measurement("R17C")
2.04
>>> reported_measurement("Q9C")
3.05

Below: the item to evaluate.
Read the entry L24D and write its reported protein stability index.
3.08
